These compounds were tested on UniProtKB Q9Y5N1; pKi is the recorded read-out.
Structures can show the parent of a compound that is named as a salt.
Reminder that pKi is minus the log10 of a molar concentration.

# count of solved cases: 5
CC(C)N1CCCN(C(=O)c2ccc(OCC3(C)COC3)nc2)CC1 [Example 6, hydrochloride salt]
7.43
CC(C)N1CCCN(C(=O)c2ccc(OC3CCOC3)nc2)CC1 (centres unmarked) [Example 2, hydrochloride salt]
8.05
CC(C)N1CCN(C(=O)c2ccc(OCC3(C)COC3)nc2)CC1 [Example 5, hydrochloride salt]
5.30
N#Cc1nc(C(=O)N2CCCN(C3CC3)CC2)ccc1OC1CCCCC1 [Example 12]
8.66
O=C(c1ccc(OC2CCOC2)nc1)N1CCCN(C2CC2)CC1 (centres unmarked) [Example 3]
8.17

Please report the recorded pKi for O=C(c1ccc(OC2CCOCC2)nc1)N1CCCN(C2CCC2)CC1 [Example 9] . 9.05

Now consider CC(C)N1CCN(C(=O)c2ccc(OC3CCOC3)nc2)CC1 (centres unmarked) [Example 1, hydrochloride salt] . 6.98

Now consider O=C(c1ccc(OC2CCCC2)nc1)N1CCCN(C2CCC2)CC1 [Example 7] . 8.96

* * *

Biological target: UniProtKB Q9Y5N1
Assay: Cyclic AMP Accumulation, SK-N-MC cells expressing reporter construct and human H3 receptor
Type: cell-based
Conditions: cAMP accumulation, average of results, read-out: Human pA2 (converted)
Some compounds, each annotated with its measured Kb.
Report as a plain number; the unit nM is understood.

# count of solved cases: 3
O=C(c1ccc(OC2CCCC2)nc1)N1CCCN(C2CCC2)CC1 [Example 7]
0.49
O=C(c1ccc(OC2CCOCC2)nc1)N1CCCN(C2CCC2)CC1 [Example 9]
0.234
O=C(c1ccc(OC2CCCCC2)nc1)N1CCCN(C2CCC2)CC1 [Example 8]
1.05

Here is the next item to consider.
Please report the recorded Kb for O=C(c1ccc(OC2CCOC2)nc1)N1CCCN(C2CCC2)CC1 (stereo not shown) [Example 4] . 0.331

* * *

Biological target: rat H3 receptor (Rattus norvegicus)
Experiment: Cyclic AMP Accumulation, SK-N-MC cells expressing reporter construct and rat H3 receptor
Type: cell-based
Design: expressed in transfected cells; host or cells: SK-N-MC sublines with reporter construct
Conditions: cAMP accumulation, average of results, read-out: Rat pA2 (converted)
Text: Sublines of SK-N-MC cells were created that expressed a reporter construct and either the human or rat H3 receptor. The pA2 values were obtained as described by Barbier et al. (2004).
READOUT_NAME: Kb

# count of solved cases: 3
O=C(c1ccc(OC2CCOC2)nc1)N1CCCN(C2CCC2)CC1 (stereo not shown)
14.5 nM
O=C(c1ccc(OC2CCCCC2)nc1)N1CCCN(C2CCC2)CC1
9.77 nM
O=C(c1ccc(OC2CCCC2)nc1)N1CCCN(C2CCC2)CC1
4.79 nM

Please tell me: Kb of `O=C(c1ccc(OC2CCOCC2)nc1)N1CCCN(C2CCC2)CC1` , system rat H3 receptor (Rattus norvegicus)? 4.37 nM

* * *

Some compounds, each annotated with its measured Ki.
Biological target: rat H3 receptor (Rattus norvegicus, UniProt Q9QYN8)
Sequence (Q9QYN8 whole entry): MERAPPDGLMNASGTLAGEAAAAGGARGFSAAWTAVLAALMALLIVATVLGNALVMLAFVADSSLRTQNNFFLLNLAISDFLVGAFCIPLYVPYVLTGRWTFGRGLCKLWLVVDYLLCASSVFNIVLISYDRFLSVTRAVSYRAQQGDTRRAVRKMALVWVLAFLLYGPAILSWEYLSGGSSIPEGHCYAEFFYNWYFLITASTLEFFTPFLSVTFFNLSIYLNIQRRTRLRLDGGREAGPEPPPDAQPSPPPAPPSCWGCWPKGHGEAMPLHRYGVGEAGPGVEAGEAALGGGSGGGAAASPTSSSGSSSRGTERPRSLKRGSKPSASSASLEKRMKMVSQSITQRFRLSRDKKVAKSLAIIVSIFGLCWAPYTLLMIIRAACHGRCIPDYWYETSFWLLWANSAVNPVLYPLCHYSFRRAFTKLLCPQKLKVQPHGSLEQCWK
Assay: H3 Receptor Binding (Rat), rat brain membranes, N-[3H]-α-methylhistamine
Conditions: rat brain without cerebellum membranes; 0.8 nM N-[3H]-α-methylhistamine; average of results

# count of solved cases: 3
O=C(c1ccc(OC2CCCCC2)nc1)N1CCCN(C2CCC2)CC1 [Example 8]
17 nM
O=C(c1ccc(OC2CCOC2)nc1)N1CCCN(C2CCC2)CC1 (stereo not shown) [Example 4]
58 nM
O=C(c1ccc(OC2CCCC2)nc1)N1CCCN(C2CCC2)CC1 [Example 7]
44 nM

Please report the recorded Ki for O=C(c1ccc(OC2CCOCC2)nc1)N1CCCN(C2CCC2)CC1 [Example 9] . 28 nM
